Target chain: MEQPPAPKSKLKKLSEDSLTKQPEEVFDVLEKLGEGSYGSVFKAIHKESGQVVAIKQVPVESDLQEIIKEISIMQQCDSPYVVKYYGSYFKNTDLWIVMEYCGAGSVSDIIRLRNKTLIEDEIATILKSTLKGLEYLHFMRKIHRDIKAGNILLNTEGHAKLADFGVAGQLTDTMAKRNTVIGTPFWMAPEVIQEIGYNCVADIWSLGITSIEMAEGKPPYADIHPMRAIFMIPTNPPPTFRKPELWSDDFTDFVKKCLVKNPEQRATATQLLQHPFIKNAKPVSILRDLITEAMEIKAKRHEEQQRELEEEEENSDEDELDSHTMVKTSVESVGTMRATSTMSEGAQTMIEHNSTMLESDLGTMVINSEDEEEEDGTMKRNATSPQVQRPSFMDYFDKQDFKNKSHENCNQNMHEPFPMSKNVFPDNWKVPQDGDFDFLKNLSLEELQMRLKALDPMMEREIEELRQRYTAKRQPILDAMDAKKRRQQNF
Assay readout: IC50

compound="NS(=O)(=O)c1ccc(Nc2ncc3c(n2)N(C2CCCC2)c2ccccc2C(=O)N3)cc1 [IB-1]" assay_readout=IC50 recorded_value="> 30 µM"
compound="CN1C(=O)c2sccc2N(C)c2nc(Nc3cccc(S(N)(=O)=O)c3)ncc21 [II-2]" assay_readout=IC50 recorded_value="> 30 µM"
compound="CN1C(=O)c2ccccc2N(C)c2nc(Nc3cccc(S(N)(=O)=O)c3)ncc21 [IC-4]" assay_readout=IC50 recorded_value="> 30 µM"

----------
Experimental target: MST2 (Homo sapiens, UniProt Q13188)
pIC50: −log10 of the molar value.
Assay readout: pIC50

chemical_smiles=CN1C(=O)c2ccccc2Nc2nc(Nc3cccc(S(N)(=O)=O)c3)ncc21 recorded_value="< 4.52"
chemical_smiles=CN1C(=O)c2cccc3c2N(CC3)c2nc(Nc3cccc(S(N)(=O)=O)c3)ncc21 recorded_value="< 4.52"
chemical_smiles=CN1C(=O)c2ccccc2N(C2CCCC2)c2nc(Nc3cccc(S(N)(=O)=O)c3)ncc21 recorded_value="< 4.52"
chemical_smiles=Cc1ccc2c(c1)C(=O)N(C)c1cnc(Nc3ccc(S(C)(=O)=O)cc3)nc1N2C recorded_value="< 4.52"
chemical_smiles=CN1C(=O)c2sccc2N(C)c2nc(Nc3ccc([N+](=O)[O-])cc3)ncc21 recorded_value="< 4.52"

----------
The next entries give measured IC50 for MST2 (Homo sapiens, UniProt Q13188).
Assay readout: IC50

molecule="CN1C(=O)c2sccc2N(C)c2nc(Nc3cc[nH]n3)ncc21 [II-27]" assay_readout=IC50 recorded_value="> 30 µM"
molecule="CCN1c2ccccc2C(=O)N(C)c2cnc(Nc3cccc(S(N)(=O)=O)c3)nc21 [ID-3]" assay_readout=IC50 recorded_value="> 30 µM"
molecule="COc1cc(N2CCN(C)CC2)ccc1Nc1ncc2c(n1)N(C)c1ccsc1C(=O)N2C [II-16]" assay_readout=IC50 recorded_value="> 30 µM"
molecule="CN1c2ccccc2C(=O)Nc2cnc(Nc3ccc(NS(C)(=O)=O)cc3)nc21 [IA-6]" assay_readout=IC50 recorded_value="> 30 µM"
molecule="Cc1ccc2c(c1)C(=O)N(C)c1cnc(Nc3ccc(S(N)(=O)=O)cc3)nc1N2C [IH-6]" assay_readout=IC50 recorded_value="> 30 µM"
molecule="COc1cc(N2CCC(O)CC2)ccc1Nc1ncc2c(n1)N(C)c1ccsc1C(=O)N2C [II-22]" assay_readout=IC50 recorded_value="> 30 µM"
molecule="CC(C)N1c2ccccc2C(=O)N(C)c2cnc(Nc3cccc(S(N)(=O)=O)c3)nc21 [IE-2]" assay_readout=IC50 recorded_value="> 30 µM"
molecule="CN1C(=O)c2sccc2N(C)c2nc(Nc3ccc(N)cc3)ncc21 [II-14]" assay_readout=IC50 recorded_value="2.75 µM"
molecule="CCN1CCN(Cc2ccc(Nc3ncc4c(n3)N(C)c3ccccc3C(=O)N4C)cc2C(F)(F)F)CC1 [IC-5]" assay_readout=IC50 recorded_value="1.8 µM"
